Recorded MIC values for a group of compounds are listed next.
- Tested on: Streptococcus pyogenes
- TEST DETAILS: Antibacterial activity against inducible macrolide-lincosamide-streptogramin B resistant Streptococcus pyogenes Finland 11 by broth microdilution method
- Format: functional
PARAMETER MEASURED: MIC

INSERT INTO results (mol, parameter_measured, recorded_result) VALUES
  ('CC[C@H]1OC(=O)[C@H](C)[C@@H](O[C@H]2C[C@@](C)(OC)[C@@H](OC(=O)CCOCCOCCNc3ccc4c(c3)c(=O)c(C(=O)O)cn4C3CC3)[C@H](C)O2)[C@H](C)[C@@H](O[C@@H]2O[C@H](C)C[C@H](N(C)C)[C@H]2O)[C@](C)(O)C[C@@H](C)CN(C)[C@H](C)[C@@H](O)[C@]1(C)O', 'MIC', '≤ 0.125 µg/mL'),
  ('CC[C@H]1OC(=O)[C@H](C)[C@@H](O[C@H]2C[C@@](C)(OC)[C@@H](OC(=O)CCOCCNc3cc4c(=O)c(C(=O)OCOC(=O)C(C)(C)C)cn(C5CC5)c4cc3Cl)[C@H](C)O2)[C@H](C)[C@@H](O[C@@H]2O[C@H](C)C[C@H](N(C)C)[C@H]2O)[C@](C)(O)C[C@@H](C)CN(C)[C@H](C)[C@@H](O)[C@]1(C)O', 'MIC', '≤ 0.125 µg/mL');
